# experimental-protocol: Radiostability (RCP, Met═O by HPLC) of preformed ^177Lu-A with individual amino acids added (Example 1)
# Format: physicochemical
# assay-setup: ^177Lu-A ~20 mCi/mL, amino acid 6.6 mg/mL, room temperature, 24 h
readout: 24-h RCP (%)

INSERT INTO results (molecular_string, readout, readout_number) VALUES
  ('CSCC[C@H](N)C(=O)O', '24-h RCP (%)', 99.3);

A. N[C@@H](Cc1c[nH]c2ccccc12)C(=O)O
B. C[Se]CC[C@H](N)C(=O)O
C. N[C@@H](Cc1c[nH]cn1)C(=O)O
D. NCC(=O)O
Prompt: Endpoint returns the given compounds ordered by ascending 24-h RCP (%). Write the labels out in the order the request specifies.
Completion: C, D, A, B

---

# Format: physicochemical
# assay-setup: ^177Lu-A (5.28 mCi avg) prepared in presence of stabilizer 3.33 mg/mL, 0 h
Where a name gives a salt, the structure may show the parent alone.
readout: RCP % t = 0 h (%)

INSERT INTO assay_data (compound, readout, units, readout_number) VALUES
  ('Oc1nc2ccccc2s1 [2-Hydroxybenzothiazole]', 'RCP % t = 0 h', '%', 96.2),
  ('N[C@@H](CCC(=O)N[C@@H](CS)C(=O)NCC(=O)O)C(=O)O [L-Glutathione, L-Glutathione, reduced]', 'RCP % t = 0 h', '%', 91.1),
  ('c1ccc2nsnc2c1 [2,1,3-Benzothiadiazole]', 'RCP % t = 0 h', '%', 98.6),
  ('O=C(O)/C=C/c1cccc(O)c1 [3-Hydroxycinnamic acid]', 'RCP % t = 0 h', '%', 96.6),
  ('Cc1c(O)c(=O)n(-c2ccccc2)n1C [4-Hydroxyantipyrine]', 'RCP % t = 0 h', '%', 99.9),
  ('CC(=O)Oc1ccccc1C(=O)O [Acetylsalicylic acid, Acetylsalicyclic acid, reference compound]', 'RCP % t = 0 h', '%', 73.0),
  ('Cc1ncc(C[n+]2csc(CCO)c2C)c(N)n1 [Thiamine hydrochloride, reference compound]', 'RCP % t = 0 h', '%', 97.0);

---

# Assay type: physicochemical
# assay-setup: ^177Lu-B (44-53 mCi) formulated with 5 mg stabilizing compound, diluted to ~2 mL, ~6° C. above room temperature, 0 h
Counter-ions that a name gives are not always drawn.
readout: (% RCP) 0-h (%)

INSERT INTO assay_data (molecule, readout_number) VALUES
  ('C[Se]CC[C@H](N)C(=O)O', 95.0),
  ('N.S=C(S)N1CCCC1', 95.0),
  ('CCOC(=O)[C@@H](N)CS [L-cysteine ethyl ester hydrochloride]', 98.4),
  ('N[C@@H](CS)C(=O)O [L-cysteine, L-cysteine hydrochloride monohydrate]', 99.1);

---

# Type: physicochemical
# assay-setup: ^177Lu-A (2.7-3.7 mCi) prepared in presence of 1 mg/mL stabilizer, 24 h room temp
readout: RCP % t = 24 h (room temp) (%)

A. O=C([O-])c1cc(O)ccc1O.[Na+] [Gentisic acid]
B. CSCC[C@@H](N)C(=O)O [D-Methionine]
Prompt: // compare measured RCP % t = 24 h (room temp), left A , right B , return larger # reply format: chosen label
Completion: B

---

# Assay type: physicochemical
# assay-setup: ^177Lu-A (3.6 mCi) prepared in presence of 2.5 mg/mL stabilizer, 24 h room temp
Where a name gives a salt, the structure may show the parent alone.
readout: RCP % t = 24 h (room temp) (%)

INSERT INTO assay_data (molecule, readout, units, readout_number) VALUES
  ('O=C([O-])c1cc(O)ccc1O.[Na+]', 'RCP % t = 24 h (room temp)', '%', 78.6),
  ('CSCC[C@@H](N)C(=O)O', 'RCP % t = 24 h (room temp)', '%', 99.6),
  ('C[Se]CC[C@H](N)C(=O)O', 'RCP % t = 24 h (room temp)', '%', 95.6),
  ('N[C@@H](CS)C(=O)O [L-cysteine, L-cysteine hydrochloride monohydrate]', 'RCP % t = 24 h (room temp)', '%', 88.3),
  ('O=C1O[C@H]([C@@H](O)CO)C([O-])=C1O.[Na+] [Ascorbic acid, Sodium L-ascorbate (Ascorbic acid)]', 'RCP % t = 24 h (room temp)', '%', 88.1);
